The measured values listed here are drawn from patent US11364203B2.

# experimentNotes: Solubility in water
# Assay type: physicochemical
# particulars: water at 25° C.
measuredAttribute: solubility

| givenSmiles | measuredAttribute | result |
| --- | --- | --- |
| CCC(=O)O[C@]1(C(=O)SCF)[C@H](C)C[C@H]2[C@@H]3C[C@H](F)C4=CC(=O)C=C[C@]4(C)[C@@]3(F)[C@@H](O)C[C@@]21C | solubility | < 1 µg/mL |
